Set-up: species or system Balb/c nu/nu mice
Conditions: mouse, in vivo
Description: The radioactivity uptake in organs was studied 1, 3, 24, and 72 h pi as described above.
Measurement Name: tissue uptake at 24 h

Per the records, this molecule ( CC(C)C[C@H](NC(=O)C[C@H](O)[C@H](CC(C)C)NC(=O)[C@H](Cc1c[nH]cn1)NC(=O)CNC(=O)[C@@H](NC(=O)[C@H](C)NC(=O)[C@H](Cc1c[nH]c2ccccc12)NC(=O)[C@H](CCC(N)=O)NC(=O)[C@@H](Cc1ccccc1)NC(=O)CCOCCOCCNC(=O)[C@H](Cc1ccc(O)c(I)c1)n1cc(COCCOCCC(=O)NC[C@H]2CC[C@H](C(=O)N[C@@H](Cc3ccc4ccccc4c3)C(=O)NCCCC[C@H](NC(=O)N[C@@H](CCC(=O)O)C(=O)O)C(=O)O)CC2)nn1)C(C)C)C(N)=O [[^125I]I-BO530] ) has tissue uptake at 24 h equal to < 1 %ID/g

All values here come from paper PMC6680768.
